Recorded measurements of pIC50, one per entry
# EXPERIMENTAL SYSTEM: KRAS WT (Homo sapiens, UniProt P01116+P62937)
# Sequence (P01116 1-169 isoform P01116-2 limits assumed): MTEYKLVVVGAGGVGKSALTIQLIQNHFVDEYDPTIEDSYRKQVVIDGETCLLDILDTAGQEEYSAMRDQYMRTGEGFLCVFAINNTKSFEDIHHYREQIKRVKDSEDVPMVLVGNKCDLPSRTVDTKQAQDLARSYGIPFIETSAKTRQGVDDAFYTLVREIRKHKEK
# Sequence (P62937 whole entry): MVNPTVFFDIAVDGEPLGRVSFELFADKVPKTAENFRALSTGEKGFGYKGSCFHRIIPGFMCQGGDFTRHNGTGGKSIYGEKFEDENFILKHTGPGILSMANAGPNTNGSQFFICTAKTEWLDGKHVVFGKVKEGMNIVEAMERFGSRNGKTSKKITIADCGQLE
# METHOD: Disruption of BRAF RBD interaction with Ras (FRET / MOA assay, with Cyclophilin A)
# Type: biochemical
# STUDY CONDITIONS: KRAS WT FRET data IC50, KRAS WT
# Description: This protocol may also be executed substituting other Ras proteins or nucleotides. The purpose of this biochemical assay was to measure the ability of test compounds to facilitate ternary complex formation between a nucleotide-loaded K-Ras isoform and Cyclophilin A; the resulting ternary complex disrupts binding to a BRAF^RBD construct, inhibiting K-Ras signaling through a RAF effector. Data is reported as IC50 values. […]
pIC50: −log10 of the molar value.

# count of solved cases: 3
# pIC50 (compound: C=CC(=O)N1CC[C@H](C(=O)N(C)[C@H](C(=O)N[C@H]2Cc3cc(O)cc(c3)-c3ccc4c(c3)c(c(-c3cc(C)cnc3[C@H](C)OC)n4CC)CC(C)(C)COC(=O)[C@@H]3CCCN(N3)C2=O)C(C)C)C1 ) is 7.00 to 8.00

# pIC50 (compound: CCn1c(-c2cccnc2[C@H](C)OC)c2c3cc(ccc31)-c1csc(n1)C[C@H](NC(=O)[C@H](C(C)C)N(C)C(=O)N1CCOC[C@@H]1CN(C)C)C(=O)N1CCC[C@H](N1)C(=O)OCC(C)(C)C2 ) is 5.00 to 6.00

# pIC50 (compound: CCn1c(-c2cnccc2COC)c2c3cc(ccc31)-c1cc(O)cc(c1)C[C@H](NC(=O)[C@H](C(C)C)N(C)C(=O)[C@H]1CCN(C=O)C1)C(=O)N1CCC[C@H](N1)C(=O)OCC(C)(C)C2 ) is 6.00 to 7.00

Further cases:
# pIC50 (compound: CCn1c(-c2cnccc2COC)c2c3cc(ccc31)-c1cc(O)cc(c1)C[C@H](NC(=O)[C@H](C(C)C)N(C)C(=O)[C@H]1CCN(C(=O)N(C)C)C1)C(=O)N1CCC[C@H](N1)C(=O)OCC(C)(C)C2 ) is 5.00 to 6.00

---

# EXPERIMENTAL SYSTEM: NRAS Q61K (Homo sapiens, UniProt P01111+P62937, Q61K)
# Sequence (P01111 whole entry Q61K): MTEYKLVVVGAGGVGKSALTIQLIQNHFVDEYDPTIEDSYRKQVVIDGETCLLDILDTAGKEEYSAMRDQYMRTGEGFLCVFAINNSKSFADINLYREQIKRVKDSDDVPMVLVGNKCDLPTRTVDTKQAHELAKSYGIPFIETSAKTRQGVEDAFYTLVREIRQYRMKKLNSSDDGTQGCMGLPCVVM
# Sequence (P62937 whole entry): as the sequence (P62937 whole entry) above
# METHOD: Disruption of BRAF RBD interaction with Ras (FRET / MOA assay, with Cyclophilin A)
# Type: biochemical
# STUDY CONDITIONS: NRAS Q61K; read-out: NRAS Q61K FRET data IC50
MEASURE: IC50

# IC50 (compound: CCn1c(-c2cccnc2[C@H](C)OC)c2c3cc(ccc31)-c1csc(n1)C[C@H](NC(=O)[C@H](C(C)C)N(C)C(=O)N1C[C@H](OC)[C@@H](N)C1)C(=O)N1CCC[C@H](N1)C(=O)OCC(C)(C)C2 (atropisomer, axis not shown) ) is 10 to 100 nM

# IC50 (compound: CCn1c(-c2cccnc2[C@H](C)OC)c2c3cc(ccc31)-c1csc(n1)C[C@H](NC(=O)[C@H](C(C)C)N(C)C(=O)N1CCN(C(=O)C3(N(C)C)CC3)CC1)C(=O)N1CCC[C@H](N1)C(=O)OCC(C)(C)C2 (atropisomer, axis not shown) ) is 10 to 100 nM

# IC50 (compound: CCn1c(-c2cccnc2[C@H](C)OC)c2c3cc(ccc31)-c1csc(n1)C[C@H](NC(=O)[C@H](C(C)C)N(C)C(=O)[C@H]1CCN(C(=O)CNC)C1)C(=O)N1CCC[C@H](N1)C(=O)OCC(C)(C)C2 ) is 1000 to 10000 nM

Now look at this one.
# IC50 (compound: CCn1c(-c2cccnc2[C@H](C)OC)c2c3cc(ccc31)-c1csc(n1)C[C@H](NC(=O)[C@H](C(C)C)N(C)C(=O)N1CC[C@H](N(C)C)C1)C(=O)N1CCC[C@H](N1)C(=O)OCC(C)(C)C2 ) is 100 to 1000 nM

---

# EXPERIMENTAL SYSTEM: KRAS G13C (Homo sapiens, UniProt P01116+P62937, G13C)
# Sequence (P01116 1-169 isoform P01116-2 G13C): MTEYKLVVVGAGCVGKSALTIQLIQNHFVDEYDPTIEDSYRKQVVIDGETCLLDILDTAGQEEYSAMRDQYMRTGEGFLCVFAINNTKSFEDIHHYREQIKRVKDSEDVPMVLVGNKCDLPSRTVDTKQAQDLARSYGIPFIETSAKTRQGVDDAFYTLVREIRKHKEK
# Sequence (P62937 whole entry): as the sequence (P62937 whole entry) above
# METHOD: Disruption of BRAF RBD interaction with Ras (FRET / MOA assay, with Cyclophilin A)
# Format: biochemical
# STUDY CONDITIONS: KRAS G13C FRET data, IC50
pIC50: −log10 of the molar value.
MEASURE: pIC50

# pIC50 (compound: CCn1c(-c2ccccc2CCOC)c2c3cc(ccc31)-c1cc(O)cc(c1)C[C@H](NC(=O)[C@H](C(C)C)N(C)C(=O)CCN)C(=O)N1CCC[C@H](N1)C(=O)OCC(C)(C)C2 ) is 5.00 to 6.00

# pIC50 (compound: CCn1c(-c2cnccc2COC)c2c3cc(ccc31)-c1cc(O)cc(c1)C[C@H](NC(=O)[C@H](C(C)C)N(C)C(=O)[C@H]1CCN(C)C1)C(=O)N1CCC[C@H](N1)C(=O)OCC(C)(C)C2 ) is 7.00 to 8.00

# pIC50 (compound: CCn1c(-c2cnccc2COC)c2c3cc(ccc31)-c1cc(O)cc(c1)C[C@H](NC(=O)[C@H](C(C)C)N(C)C(=O)[C@@H]1NC[C@@H]3C[C@@H]31)C(=O)N1CCC[C@H](N1)C(=O)OCC(C)(C)C2 ) is 7.00 to 8.00

# pIC50 (compound: CCn1c(-c2cccnc2[C@H](C)OC)c2c3cc(ccc31)-c1csc(n1)C[C@H](NC(=O)N1CCCC1)C(=O)N1CCC[C@H](N1)C(=O)OCC(C)(C)C2 ) is 6.00 to 7.00

Now look at this one.
# pIC50 (compound: CCn1c(-c2cccnc2[C@H](C)OC)c2c3cc(ccc31)-c1cc(O)cc(c1)C[C@H](NC(=O)[C@H](C(C)C)N(C)C(=O)[C@@H]1CC1(F)F)C(=O)N1CCC[C@H](N1)C(=O)OCC(C)(C)C2 ) is 6.00 to 7.00

---

# EXPERIMENTAL SYSTEM: KRAS G13D (Homo sapiens, UniProt P01116+P62937, G13D)
# Sequence (P01116 1-169 isoform P01116-2 G13D limits assumed): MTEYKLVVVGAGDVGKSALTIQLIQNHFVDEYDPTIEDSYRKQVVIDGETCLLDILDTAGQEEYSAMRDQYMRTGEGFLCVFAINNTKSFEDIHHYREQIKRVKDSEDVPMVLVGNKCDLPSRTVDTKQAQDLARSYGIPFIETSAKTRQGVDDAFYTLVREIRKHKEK
# Sequence (P62937 whole entry): as the sequence (P62937 whole entry) above
# METHOD: Ras-Raf disruption / FRET / MOA assay (BRAF RBD)
# Assay type: biochemical
# STUDY CONDITIONS: Ras-Raf disruption, with Cyclophilin A; read-out: KRAS G13D FRET data IC50
MEASURE: IC50

IC50 of CCn1c(-c2cccnc2[C@H](C)OC)c2c3cc(ccc31)-c1cc(O)cc(c1)C[C@H](NC(=O)[C@H](C(C)C)N(C)C(=O)CN(C)C(=O)[C@H]1C[C@@H]3N[C@@H]3C1)C(=O)N1CCC[C@H](N1)C(=O)OCC(C)(C)C2 (atropisomer, axis not shown) , assay on KRAS G13D (Homo sapiens, UniProt P01116+P62937, G13D), is 10 to 100 nM

IC50 of CCn1c(-c2cccnc2[C@H](C)OC)c2c3cc(ccc31)-c1cc(O)cc(c1)C[C@H](NC(=O)[C@H](C(C)C)N(C)C(=O)N1CCN(C(=O)[C@@H]3CN3)CC1=O)C(=O)N1CCC[C@H](N1)C(=O)OCC(C)(C)C2 (atropisomer, axis not shown) , assay on KRAS G13D (Homo sapiens, UniProt P01116+P62937, G13D), is 100 to 1000 nM

IC50 of CCn1c(-c2cnccc2COC)c2c3cc(ccc31)-c1cccc(c1)C[C@H](NC(=O)[C@H](C(C)C)N(C)C(=O)CCN=C=Nc1ccccc1OC)C(=O)N1CCC[C@H](N1)C(=O)OCC(C)(C)C2 , assay on KRAS G13D (Homo sapiens, UniProt P01116+P62937, G13D), is > 10000 nM

IC50 of CCn1c(-c2cccnc2[C@H](C)OC)c2c3cc(ccc31)-c1cc(O)cc(c1)C[C@H](NC(=O)[C@H](C(C)C)N(C)C(=O)c1ccc([C@@H]3CN3)cc1)C(=O)N1CCC[C@H](N1)C(=O)OCC(C)(C)C2 , assay on KRAS G13D (Homo sapiens, UniProt P01116+P62937, G13D), is 100 to 1000 nM

IC50 of CCn1c(-c2cccnc2[C@H](C)OC)c2c3cc(ccc31)-c1cc(O)cc(c1)C[C@H](NC(=O)[C@H](C(C)C)N(C)C(=O)[C@H]1C[C@H](NC(=O)[C@H]3CN3)C1)C(=O)N1CCC[C@H](N1)C(=O)OCC(C)(C)C2 , assay on KRAS G13D (Homo sapiens, UniProt P01116+P62937, G13D), is 10 to 100 nM

Further cases:
IC50 of CCn1c(-c2cccnc2[C@H](C)OC)c2c3cc(ccc31)-c1cccc(c1)C[C@H](NC(=O)[C@H](C(C)C)N(C)C(=O)CCN=C=NCCOC)C(=O)N1CCC[C@H](N1)C(=O)OCC(C)(C)C2 , assay on KRAS G13D (Homo sapiens, UniProt P01116+P62937, G13D), is 1000 to 10000 nM

IC50 of CCn1c(-c2cccnc2[C@H](C)OC)c2c3cc(ccc31)-c1csc(n1)C[C@H](NC(=O)[C@H](C(C)C)N(C)C(=O)N(C)[C@H]1CCN(C(=O)[C@H]3CN3)C1)C(=O)N1CCC[C@H](N1)C(=O)OCC(C)(C)C2 (atropisomer, axis not shown) , assay on KRAS G13D (Homo sapiens, UniProt P01116+P62937, G13D), is 1000 to 10000 nM

IC50 of CCn1c(-c2cccnc2[C@H](C)OC)c2c3cc(ccc31)-c1cc(O)cc(c1)C[C@H](NC(=O)[C@H](C(C)C)N(C)C(=O)CC1CN(C(=O)[C@@H]3CN3)C1)C(=O)N1CCC[C@H](N1)C(=O)OCC(C)(C)C2 , assay on KRAS G13D (Homo sapiens, UniProt P01116+P62937, G13D), is 100 to 1000 nM

IC50 of CCn1c(-c2cccnc2[C@H](C)OC)c2c3cc(ccc31)-c1cccc(c1)C[C@H](NC(=O)[C@H](C1CCCC1)N1CC[C@]3(CCN(C(=O)[C@@H]4N[C@@H]4C4CC4)C3)C1=O)C(=O)N1CCC[C@H](N1)C(=O)OCC(C)(C)C2 , assay on KRAS G13D (Homo sapiens, UniProt P01116+P62937, G13D), is 1000 to 10000 nM

IC50 of CCn1c(-c2cccnc2[C@H](C)OC)c2c3cc(ccc31)-c1csc(n1)C[C@H](NC(=O)[C@H](C(C)C)N(C)C(=O)N1CC(N(C)C(=O)[C@H]3CN3)C1)C(=O)N1CCC[C@H](N1)C(=O)OCC(C)(C)C2 , assay on KRAS G13D (Homo sapiens, UniProt P01116+P62937, G13D), is 100 to 1000 nM

IC50 of CCn1c(-c2cccnc2[C@H](C)OC)c2c3cc(ccc31)-c1csc(n1)C[C@H](NC(=O)[C@H](C(C)C)N(C)C(=O)N1CCN(C(=O)[C@@H]3CN3)[C@@H](C)C1)C(=O)N1CCC[C@H](N1)C(=O)OCC(C)(C)C2 , assay on KRAS G13D (Homo sapiens, UniProt P01116+P62937, G13D), is 100 to 1000 nM

IC50 of CCn1c(-c2cccnc2[C@H](C)OC)c2c3cc(ccc31)-c1cc(O)cc(c1)C[C@H](NC(=O)[C@H](C(C)C)N(C)C(=O)C1CC3(C1)CN(C(=O)[C@H]1CN1)C3)C(=O)N1CCC[C@H](N1)C(=O)OCC(C)(C)C2 , assay on KRAS G13D (Homo sapiens, UniProt P01116+P62937, G13D), is 100 to 1000 nM

IC50 of CCn1c(-c2cnccc2COC)c2c3cc(ccc31)-c1cccc(c1)C[C@H](NC(=O)[C@H](C(C)C)N(C)C(=O)CCN=C=NCCc1cccs1)C(=O)N1CCC[C@H](N1)C(=O)OCC(C)(C)C2 , assay on KRAS G13D (Homo sapiens, UniProt P01116+P62937, G13D), is > 10000 nM

IC50 of CCn1c(-c2cccnc2[C@H](C)OC)c2c3cc(ccc31)-c1cc(O)cc(c1)C[C@H](NC(=O)[C@H](C(C)C)N(C)C(=O)CC1CN(C(=O)[C@H]3CN3)C1)C(=O)N1CCC[C@H](N1)C(=O)OCC(C)(C)C2 , assay on KRAS G13D (Homo sapiens, UniProt P01116+P62937, G13D), is 100 to 1000 nM

IC50 of CCn1c(-c2cnccc2COC)c2c3cc(ccc31)-c1cccc(c1)C[C@H](NC(=O)[C@H](C(C)C)N(C)C(=O)CCN=C=NCc1c(OC)cccc1OC)C(=O)N1CCC[C@H](N1)C(=O)OCC(C)(C)C2 , assay on KRAS G13D (Homo sapiens, UniProt P01116+P62937, G13D), is 1000 to 10000 nM

IC50 of CCn1c(-c2cnccc2COC)c2c3cc(ccc31)-c1cccc(c1)C[C@H](NC(=O)[C@H](C(C)C)N(C)C(=O)CCN=C=NCCCSC)C(=O)N1CCC[C@H](N1)C(=O)OCC(C)(C)C2 , assay on KRAS G13D (Homo sapiens, UniProt P01116+P62937, G13D), is > 10000 nM
